- system_name: myeloperoxidase (MPO) (Homo sapiens)
- Sequence (P05164 49-745): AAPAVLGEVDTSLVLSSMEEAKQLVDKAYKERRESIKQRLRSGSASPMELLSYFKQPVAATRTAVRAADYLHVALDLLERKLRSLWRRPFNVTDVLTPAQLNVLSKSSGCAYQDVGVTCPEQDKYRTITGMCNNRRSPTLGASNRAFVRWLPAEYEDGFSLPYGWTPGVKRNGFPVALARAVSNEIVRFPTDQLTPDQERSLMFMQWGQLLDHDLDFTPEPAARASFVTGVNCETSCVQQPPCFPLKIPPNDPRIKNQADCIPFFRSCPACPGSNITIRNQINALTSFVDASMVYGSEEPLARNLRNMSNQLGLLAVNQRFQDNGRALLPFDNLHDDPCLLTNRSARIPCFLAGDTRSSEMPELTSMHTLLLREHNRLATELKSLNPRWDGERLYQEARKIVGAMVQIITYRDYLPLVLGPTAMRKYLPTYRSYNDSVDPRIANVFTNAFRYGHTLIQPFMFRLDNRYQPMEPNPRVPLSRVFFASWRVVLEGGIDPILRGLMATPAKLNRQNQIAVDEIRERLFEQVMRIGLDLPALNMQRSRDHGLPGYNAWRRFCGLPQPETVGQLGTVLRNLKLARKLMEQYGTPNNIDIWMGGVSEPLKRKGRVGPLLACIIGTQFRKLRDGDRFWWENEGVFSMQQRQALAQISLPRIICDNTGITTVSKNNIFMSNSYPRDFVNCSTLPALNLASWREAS
- run_description: MPO peroxidation assay (Amplex Red assay)
- Type: biochemical
- experimental_setup: MPO peroxidation, potency range class; read-out: Amplex Red IC50
pIC50: −log10 of the molar value.
Quick reference for pIC50 among some molecules

// known answers, use as guide
{"columns": ["molecule", "system_name", "pIC50"],
 "data": [
  ["COc1ccccc1-c1ccc(COc2cc(N)nc3[nH]nnc23)cc1", "myeloperoxidase (MPO) (Homo sapiens)", "7.00 to 9.00"],
  ["Nc1cc(OCc2ccc(-n3ncc4ccccc43)cc2OC(F)(F)F)c2nn[nH]c2n1", "myeloperoxidase (MPO) (Homo sapiens)", "7.00 to 9.00"],
  ["Nc1cc(OCc2cc(C(=O)NCCCN3CCCC3=O)ccc2F)c2nn[nH]c2n1", "myeloperoxidase (MPO) (Homo sapiens)", "6.00 to 7.00"],
  ["Nc1cc(OCc2cccc(OC(F)(F)F)c2)c2nn[nH]c2n1", "myeloperoxidase (MPO) (Homo sapiens)", "7.00 to 9.00"],
  ["N#Cc1cc(-c2ccc(N3CCNCC3)nc2)ccc1COc1cc(N)nc2[nH]nnc12", "myeloperoxidase (MPO) (Homo sapiens)", "7.00 to 9.00"]
]}

In: GET /values?readout=pIC50&system=myeloperoxidase (MPO) (Homo sapiens)&item= Nc1cc(OCc2ccc(OC(F)F)cc2)c2nn[nH]c2n1
Out: 6.00 to 7.00

In: Look up pIC50 with myeloperoxidase (MPO) (Homo sapiens) for this molecule: COc1cccc(-c2cccc(COc3cc(N)nc4[nH]nnc34)c2)c1
Out: 7.00 to 9.00

In: # value lookup — system myeloperoxidase (MPO) (Homo sapiens), readout pIC50, item CC1CCCC(C)C1COc1cc(N)nc2[nH]nnc12 (stereo not drawn)
Out: 7.00 to 9.00

In: Can you look up pIC50 on myeloperoxidase (MPO) (Homo sapiens) for COc1ccc(-c2ccc(COc3cc(N)nc4[nH]nnc34)cc2)cc1F ?
Out: 6.00 to 7.00

Source of measurements: patent US10316035B2
